Reference source: patent US20100298141A1

test system: johnsongrass; test: Test F preemergence test; format: in vivo, Sorghum halepense; conditions: Preemergence; 31 g ai/ha; scale 0 to 100
attributeMeasured: Plant response rating, Johnsongrass
API note: the answer field is a bare number with no unit suffix.

Take a look at these entries with their results.
>  <compound>
CCn1nc(C(F)(F)F)c(CS(=O)(=O)c2cc(C)cc[n+]2[O-])c1OCC(F)(F)F

>  <attributeMeasured>
Plant response rating, Johnsongrass

>  <reportedResult>
75

$$$$
>  <compound>
Cn1nc(C(F)(F)F)c(C[S+]([O-])c2cccc[n+]2[O-])c1OCC(F)(F)F (racemic)

>  <attributeMeasured>
Plant response rating, Johnsongrass

>  <reportedResult>
75

$$$$
>  <compound>
CCn1nc(C(F)(F)F)c(CS(=O)(=O)c2cccc[n+]2[O-])c1OCC(F)(F)F

>  <attributeMeasured>
Plant response rating, Johnsongrass

>  <reportedResult>
80

$$$$
>  <compound>
Cc1cc[n+]([O-])c([S+]([O-])Cc2c(C(F)(F)F)nn(C)c2Cl)c1 (racemic)

>  <attributeMeasured>
Plant response rating, Johnsongrass

>  <reportedResult>
60

$$$$
>  <compound>
Cn1nc(C(F)(F)F)c(CS(=O)(=O)c2cccc[n+]2[O-])c1OCC(F)(F)F

>  <attributeMeasured>
Plant response rating, Johnsongrass

>  <reportedResult>
100

$$$$

Data request: For the compound Cn1nc(C(F)(F)F)c(C[S+]([O-])c2ccc(Cl)c[n+]2[O-])c1OC(F)F (stereo not shown) , what Plant response rating, Johnsongrass is on record?
Data returned: 95

Data request: Then what about the compound Cc1cc[n+]([O-])c(S(=O)(=O)C(Cl)c2c(C(F)(F)F)nn(C)c2OCC(F)(F)F)c1 (racemic) ?
Data returned: 75
